B1: 6NMW (parent)
chain: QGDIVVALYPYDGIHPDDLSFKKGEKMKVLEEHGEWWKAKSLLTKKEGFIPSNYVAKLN

Variants of: B1
Assay Comment: folding stability dG (cDNA display proteolysis); higher = more stable
Details: PBS, room temperature
We begin with a simple list: items and their reported folding stability dG.

Variant Id	folding stability dG / kcal/mol
G24L	1.02
E31I	2.98
T44A	0.515
P51C	2.34
L42W	1.06
N59T	3.58
K23T	2.75
L19V	0.435
A56V	4.56
F49W	4.88
V5R	0.357
S20I	2.09
T44F	0.599
W37S	2.26
P51Q	1.09
V5L	1.66
G13E	1.2
D3Y	4.84
K23Q	3.22
